target: D(1A) dopamine receptor (Homo sapiens, UniProt P21728); assay: Displacement of [3H]SCH23390 from dopamine D1 receptor expressed in human HEK293 cells at 10 uM by liquid scintillation counter; assay type: cell-based
Sequence (P21728 whole entry): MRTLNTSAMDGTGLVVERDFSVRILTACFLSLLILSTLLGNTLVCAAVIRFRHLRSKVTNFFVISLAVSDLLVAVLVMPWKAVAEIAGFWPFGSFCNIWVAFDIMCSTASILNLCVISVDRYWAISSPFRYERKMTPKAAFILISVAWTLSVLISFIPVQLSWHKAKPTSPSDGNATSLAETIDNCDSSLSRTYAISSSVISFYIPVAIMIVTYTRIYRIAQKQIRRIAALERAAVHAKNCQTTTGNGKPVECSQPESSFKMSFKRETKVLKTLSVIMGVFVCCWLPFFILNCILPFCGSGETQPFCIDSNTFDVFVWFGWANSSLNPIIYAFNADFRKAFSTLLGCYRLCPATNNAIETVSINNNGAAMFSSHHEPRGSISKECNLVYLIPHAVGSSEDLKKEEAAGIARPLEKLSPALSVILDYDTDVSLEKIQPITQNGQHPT
Would you please tag the item T when its inhibition is 50% or above, and F when it is below?

CCCN1CCc2cccc3c2C1Cc1cccc(OCCCn2cc(CCN4CCN(c5ccccc5OC)CC4)nn2)c1-3 (racemic) :: T
CCCN1CCc2cccc3c2[C@H]1Cc1cccc(OCCCn2cc(CCN4CCN(c5ccccc5OC)CC4)nn2)c1-3 :: T
CCCN1CCc2cccc3c2C1Cc1cccc(OCCCn2cc(CCCN4CCN(c5ccccc5OC)CC4)nn2)c1-3 (racemic) :: F
CCCN1CCc2cccc3c2[C@@H]1Cc1cccc(OCc2cn(CCCCN4CCN(c5ccccc5OC)CC4)nn2)c1-3 :: T

Query string: Has CCCN1CCc2cccc3c2C1Cc1cccc(OCc2cn(CCN4CCN(c5ccccc5OC)CC4)nn2)c1-3 (racemic) a recorded inhibition greater than or equal to 50%?
Result string: F

Query string: Has CCCN1CCc2cccc3c2C1Cc1cccc(OCc2cn(CCCN4CCN(c5ccccc5)CC4)nn2)c1-3 (racemic) a recorded inhibition greater than or equal to 50%?
Result string: T

Query string: Has CCCN1CCc2cccc3c2C1Cc1cccc(OCc2cn(CCCN4CCN(c5ncccn5)CC4)nn2)c1-3 (racemic) a recorded inhibition greater than or equal to 50%?
Result string: F

Query string: Has `CCCN1CCc2cccc3c2[C@@H]1Cc1cccc(OCCCn2cc(CCN4CCN(c5ccccc5OC)CC4)nn2)c1-3` a recorded inhibition greater than or equal to 50%?
Result string: T
